target-or-test-system: His-tagged recombinant VBC protein complex (Homo sapiens, UniProt P40337)
Construct: made in house
Sequence (P40337 whole entry): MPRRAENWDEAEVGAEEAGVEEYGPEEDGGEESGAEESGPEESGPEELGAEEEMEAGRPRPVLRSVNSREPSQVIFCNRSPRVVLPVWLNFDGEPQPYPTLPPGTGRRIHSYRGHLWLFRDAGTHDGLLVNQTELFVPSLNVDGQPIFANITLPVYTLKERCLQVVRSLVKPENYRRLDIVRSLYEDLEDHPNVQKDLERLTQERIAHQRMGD
Sequence (Q15370 whole entry partner): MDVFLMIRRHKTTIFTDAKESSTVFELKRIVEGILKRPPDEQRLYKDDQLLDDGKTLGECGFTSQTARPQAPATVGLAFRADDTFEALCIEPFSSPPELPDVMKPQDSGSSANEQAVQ
Sequence (Q15369 whole entry partner): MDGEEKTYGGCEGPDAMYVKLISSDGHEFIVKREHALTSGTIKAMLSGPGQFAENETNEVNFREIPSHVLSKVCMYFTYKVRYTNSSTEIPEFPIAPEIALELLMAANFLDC
test: Biolayer interferometry (BLI)
Format: binding
applied-conditions: 1:1 interaction, 0.78-12.5 μM; read-out: Kd (BLI, kinetic fit)
Experimental: HEK293 cells were treated with vehicle DMSO (1% for 2 h), 1a (0.3, 1, 3, 6 and 9 μM for 2 h), VH298 (100 μM for 2 h), MG132 (20 μM for 3 h), or FG-4592 (100 μM for 2 h) before lysis. […] The levels of hydroxy-HIF-1α co-precipitated with VHL were detected using a hydroxy-HIF-1α antibody, and then visualized using ECL Western Blotting Detection Reagent (GE Healthcare). […] The protein samples were collected and detected by Western blotting using either VHL or PHD2 antibodies. […]
readout-type: pKd
Please keep in mind that pKd is minus log10 of the molar concentration; only the number is needed.

Request the reported pKd associated with COc1cc[n+]2c3c1ccc1c(OC)cc[n+](c13)[Ir-3]213([c]2ccccc2-c2cccc[n+]21)[c]1ccccc1-c1cccc[n+]13.F[P-](F)(F)(F)(F)F 5.17
